- Tested on: human SMAD7 mRNA
- PROTOCOL_SUMMARY: Antisense inhibition of human SMAD7 mRNA expression in Hep3B cells by 3-10-3 cEt gapmers, 10,000 nM, electroporation (Example 2)
- Type: cell-based
- EXPERIMENTAL_PARAMETERS: Hep3B cells, 10,000 nM antisense oligonucleotide, electroporation, approximately 24 hours, RT-PCR primer probe set RTS5062, relative to untreated control cells
Strand notation (5' to 3'): a small letter for the sugar, then the base; units joined by * are phosphorothioate-linked, units joined directly phosphodiester-linked; [ ] holds rarer units or linkages, { } end groups; capitals alone tell only the bases. k = constrained ethyl (cEt); [5mC] = 5-methylcytosine; d = 2'-deoxy (DNA)
Class boundaries, taken from values of % Inhibition, are as follows: lower bin (below 20%), middle bin (20% to below 30%), upper bin (30% or more)

See these solved cases before continuing.
SUBSTANCE: 800072 (antisense kG*kA*k[5mC]*dT*dT*dG*dG*dG*dA*d[5mC]*d[5mC]*dA*dT*kA*kA*kA) [compound 800072]
CATEGORY: lower bin
//
SUBSTANCE: 800014 (kT*kA*kA*dA*dG*d[5mC]*dA*dT*dA*dA*dA*dA*dT*k[5mC]*k[5mC]*kT; antisense) [compound 800014]
CATEGORY: middle bin
//
SUBSTANCE: 800033 (k[5mC]*kA*k[5mC]*dT*dA*d[5mC]*dA*dG*dA*dG*dA*dT*dT*k[5mC]*k[5mC]*k[5mC]; antisense) [compound 800033]
CATEGORY: upper bin

Attention now turns to another entry.
Challenge: Bin? 799991 (kG*kG*k[5mC]*d[5mC]*dG*d[5mC]*d[5mC]*dT*d[5mC]*d[5mC]*dT*dG*d[5mC]*kA*kG*kG; antisense) [compound 799991]
Response given: lower bin

----------
Exercise: state measured IC50 for each of the substances provided.
- System: human SMAD7 mRNA
- PROTOCOL_SUMMARY: Dose-dependent inhibition of human SMAD7 mRNA expression in Hep3B cells (Example 3, Study 1 and 2)
- Format: cell-based
- EXPERIMENTAL_PARAMETERS: electroporation, Study 2 (740-20000 nM)
- Experimental: The antisense oligonucleotides were tested in a series of experiments that had similar culture conditions as described below. Cells were plated at a density of 20,000 cells per well and transfected using electroporation with 0.31 μM, 1.25 μM, 5.00 μM, or 20.00 μM concentrations of antisense oligonucleotide, as specified in the Tables below. […] After a treatment period of approximately 16 hours, RNA was isolated from the cells and SMAD7 mRNA levels were measured by quantitative real-time PCR. […]
Strand notation (5' to 3'): a small letter for the sugar, then the base; units joined by * are phosphorothioate-linked, units joined directly phosphodiester-linked; [ ] holds rarer units or linkages, { } end groups; capitals alone tell only the bases. k = constrained ethyl (cEt); [5mC] = 5-methylcytosine; d = 2'-deoxy (DNA)
One number for each entry, in µM.

State the recorded IC50 for every item in the following list.
1. 772842 (kG*kT*kT*dA*dA*dT*dA*dA*dT*dA*dT*d[5mC]*dT*kT*k[5mC]*k[5mC]; antisense) [compound 772842]
2. 798686 (antisense kG*kA*kG*dG*dA*dG*dG*d[5mC]*dG*dA*dG*dG*dA*kG*kA*kA) [compound 798686]
3. 772732 (kG*kA*kT*dA*dT*dT*dT*dA*dG*d[5mC]*dT*dG*dT*k[5mC]*kA*kG; antisense) [compound 772732]
4. 799496 (antisense kG*kG*kG*dT*dG*dA*dG*dG*dT*dG*dG*d[5mC]*dT*kG*k[5mC]*kG) [compound 799496]
5. 799168 (antisense kG*k[5mC]*kT*dA*dA*dG*dA*dA*d[5mC]*dA*dG*dT*dG*kT*k[5mC]*kG) [compound 799168]
6. 799708 (antisense k[5mC]*kA*kA*dA*d[5mC]*dT*dT*dG*dT*dG*dG*dT*dA*kA*kA*kA) [compound 799708]
7. 799318 (antisense kG*kT*kG*dG*dA*dT*dT*dT*dG*dA*dA*dA*dA*kG*kG*kG) [compound 799318]

Response given:
1: 6; 2: 5; 3: 3; 4: 3; 5: 5; 6: 11; 7: 11

State the recorded IC50 for every item in the following list.
1. 800048 (antisense kT*kG*kG*dA*dA*dA*dG*dG*dA*dA*dG*dA*d[5mC]*kT*k[5mC]*kG) [compound 800048]
2. 830163 (antisense k[5mC]*kA*kA*d[5mC]*dT*dG*dA*dA*dG*dG*dT*dG*dA*k[5mC]*k[5mC]*k[5mC]) [compound 830163]
3. 801040 (antisense kG*kT*k[5mC]*dA*dT*dG*dA*dA*dA*dG*dA*dT*dT*k[5mC]*kT*kT) [compound 801040]
4. 799751 (antisense kG*kA*kG*d[5mC]*dT*dA*dA*dT*dG*dA*d[5mC]*dA*d[5mC]*kT*kG*kG) [compound 799751]
5. 799787 (k[5mC]*k[5mC]*kA*dA*dA*dG*d[5mC]*dA*dG*dA*dA*dG*dT*kA*kG*kA; antisense) [compound 799787]
6. 830208 (kA*kA*kG*dG*dT*dG*dA*d[5mC]*dT*d[5mC]*dA*dT*d[5mC]*kA*kG*kG; antisense) [compound 830208]

Response given:
1. 4
2. 2
3. 1
4. 10
5. 18
6. 1

State the recorded IC50 for every item in the following list.
1. 799534 (kG*kA*kG*dA*dA*dT*dG*dA*dA*dG*dT*d[5mC]*d[5mC]*kA*kG*kA; antisense) [compound 799534]
2. 799565 (kA*kG*kT*dA*dA*dA*d[5mC]*dA*dA*dT*dA*d[5mC]*d[5mC]*k[5mC]*kT*k[5mC]; antisense) [compound 799565]

Response given:
1: 1; 2: 11

State the recorded IC50 for every item in the following list.
1. 799686 (antisense kG*kA*kG*dA*dT*dT*dT*dT*dA*dA*dA*dT*dG*k[5mC]*kT*kG) [compound 799686]
2. 799734 (antisense kT*k[5mC]*k[5mC]*d[5mC]*dA*dG*dG*dT*dG*dA*dA*d[5mC]*d[5mC]*k[5mC]*kA*k[5mC]) [compound 799734]
3. 830135 (antisense kA*kA*kG*dT*dA*d[5mC]*dA*dA*dT*d[5mC]*dT*d[5mC]*d[5mC]*kT*kG*kG) [compound 830135]
4. 799509 (antisense kA*kG*kA*dA*dA*d[5mC]*dA*dG*dT*d[5mC]*dT*d[5mC]*d[5mC]*kA*k[5mC]*kA) [compound 799509]
5. 830207 (kA*kG*kG*dT*dG*dA*d[5mC]*dT*d[5mC]*dA*dT*d[5mC]*dA*kG*kG*k[5mC]; antisense) [compound 830207]

Response given:
1. 2
2. 8
3. 5
4. 12
5. 1

State the recorded IC50 for every item in the following list.
1. 799709 (antisense kT*k[5mC]*kA*dA*dA*d[5mC]*dT*dT*dG*dT*dG*dG*dT*kA*kA*kA) [compound 799709]
2. 830099 (kG*k[5mC]*k[5mC]*dT*dT*dT*dG*dG*dA*dA*dT*dT*dA*kG*kT*kA; antisense) [compound 830099]

Response given:
1: 7; 2: 10

----------
Exercise: state measured pIC50 for each of the substances provided.
- Tested on: murine Smad7 mRNA
- PROTOCOL_SUMMARY: Dose-dependent inhibition of murine Smad7 mRNA in bEND cells, electroporation (Example 5, Study 2)
- Assay type: cell-based, mouse
- EXPERIMENTAL_PARAMETERS: electroporation
pIC50: −log10 of the molar value.

SUBSTANCE: 830037 (antisense CTATTGGCTGATCTGG; 3-10-3 cEt gapmer, further chemistry not given here) [compound 830037]
pIC50: < 4.70

SUBSTANCE: 798781 (CGTAAGATTCACAGCA; 3-10-3 cEt gapmer, further chemistry not given here) [compound 798781]
pIC50: 4.70

Challenge: Could you share which pIC50 value was measured for 830121 (AGAATCAAGCCCTGGC; 3-10-3 cEt gapmer, further chemistry not given here) [compound 830121] ?
Response given: < 4.70

----------
- System: human SMAD7 mRNA
- PROTOCOL_SUMMARY: Antisense inhibition of human SMAD7 mRNA expression in Hep3B cells by 3-10-3 cEt gapmers, 10,000 nM, electroporation (Example 2)
- Assay type: cell-based
- EXPERIMENTAL_PARAMETERS: SMAD7 mRNA, Hep3B cells, electroporation with 10,000 nM antisense oligonucleotide, approximately 24 hours, primer probe set RTS5062, relative to untreated control cells
Strand notation (5' to 3'): a small letter for the sugar, then the base; units joined by * are phosphorothioate-linked, units joined directly phosphodiester-linked; [ ] holds rarer units or linkages, { } end groups; capitals alone tell only the bases. k = constrained ethyl (cEt); [5mC] = 5-methylcytosine; d = 2'-deoxy (DNA)
Exercise: state measured % Inhibition for each of the substances provided.
One number for each entry, in %.

Worked examples follow.
SUBSTANCE: 829807 (kA*kG*kA*d[5mC]*dT*d[5mC]*dT*dA*dG*dT*dT*d[5mC]*dG*k[5mC]*kA*kG; antisense) [compound 829807]
ASSAY_SYSTEM: human SMAD7 mRNA
UNITS_LABEL: %
% Inhibition: 41
//
SUBSTANCE: 829795 (kT*kG*kA*dT*d[5mC]*dT*dT*d[5mC]*d[5mC]*d[5mC]*dG*dT*dA*kA*kG*kA; antisense) [compound 829795]
ASSAY_SYSTEM: human SMAD7 mRNA
UNITS_LABEL: %
% Inhibition: 34

Challenge: Could you share which % Inhibition value was measured for 829957 (k[5mC]*kA*k[5mC]*d[5mC]*dT*dT*dG*dT*d[5mC]*dA*d[5mC]*d[5mC]*d[5mC]*kG*kT*k[5mC]; antisense) [compound 829957] ?
Response given: 41

The values you see were collected from patent US10517889B2.
